System: BT-549 breast
Test: NCI tumour cell line growth inhibition, 48 h
Assay metric: TGI (µM)
The figure you give is taken to be in µM; do not add the unit.

CC(C)(C)c1cc(/C=C(\C#N)C(=O)NCCO)cc(C(C)(C)C)c1O :: 71.1

As a next step, examine the compound that follows.
Identify the measured TGI of O=c1[nH]ncc(Br)c1Br for BT-549 breast.
12.2

====

System: T-47D breast
Test: NCI tumour cell line growth inhibition, 48 h
Assay metric: TGI (µM)
API: value field is a number in µM; no unit string.

Example cases with answers are listed next.
Brc1ccc2c(-c3csc(-c4c[nH]c5ccc(Br)cc45)n3)c[nH]c2c1 :: 21.3
Nc1nc(Cl)c2ncn(Cc3ccc(C45CC6CC(CC(C6)C4)C5)c(O)c3)c2n1 :: 24.5
CC(C)(C)[Si](C)(C)OCC1OC(n2cnc3c(N)ncnc32)C(O[Si](C)(C)C(C)(C)C)C1O[Si](C)(C)C(C)(C)C (centres undefined) :: 46.4

Let us examine a further case.
Look up TGI with T-47D breast for this compound: FC(F)(F)c1ccc2nc3n(c2c1)C(c1c(Cl)cccc1Cl)SC3 (centres undefined)
26.9

====

Test system: 786-0 renal
Test: NCI tumour cell line growth inhibition, 48 h
Assay metric: GI50

Some entries whose results are on file:
CS(=O)(=O)c1ccc([C@H]2O[C@@H](CO)C[C@]2(O)c2ccc(S(C)(=O)=O)cc2)cc1 :: > 100 µM
Cn1c2ccccc2c2c(-c3ccccc3)[n+]3ccncc3nc21 :: > 100 µM

// next item, GI50 requested
# GI50 lookup, item CC1=CC(=Nc2ccc(N(CCCl)CCCl)cc2)C=C(C)C1=O
0.457 µM

====

Here, each record is paired with measured TGI data.
Tested on: SF-295 CNS
Test: NCI tumour cell line growth inhibition, 48 h

Here are 5 compounds together with their reported answers.
Brc1cccc(C=NC23CC4CC(CC(C4)C2)C3)c1 :: > 100 µM
Cc1ccc2c(c1)[n+]([O-])c(N)n[n+]2[O-] :: > 100 µM
CC(C)(C)C1CCC2(CC1)c1[nH]c3ccccc3c1C1(CCC(C(C)(C)C)CC1)c1[nH]c3ccccc3c12 (centres undefined) :: > 100 µM
CC(=O)CNC(=O)OC(C)(C)C :: > 100 µM
FC(F)(F)c1cccc(Nc2nccc(-c3cnn4nc(-c5ccccc5)ccc34)n2)c1 :: > 25 µM

Reported TGI for SF-295 CNS, given CCOn1c(C2(CC3CCN(C(=O)c4ccccc4)CC3)OCCO2)cc2ccccc21 ?
30.5 µM

Which TGI is reported with SF-295 CNS for this entry: CC[C@]1(O)C[C@@H]2CN(CCc3c([nH]c4ccccc34)[C@@](C(=O)OC)(c3cc4c(cc3OC)N(C)[C@H]3[C@@](O)(C(=O)OC)[C@H](OC(C)=O)[C@]5(CC)C=CCN6CC[C@]43[C@@H]65)C2)C1 ?
0.991 µM

Lab request: please report TGI under test system SF-295 CNS for Cc1ccc(NC(=O)c2cccc(N(C)C)c2)cc1NC(=O)c1ccc(O)cc1
> 100 µM

What measured TGI is associated with COC1(OC)CCCCC2c3cccc(OC(C)=O)c3C21OC(C)=O (centres undefined) on SF-295 CNS?
> 100 µM
